Assay: ASA and salicylic acid plasma pharmacokinetic profiles
Format: in vivo
Conditions: plasma, oral, 160 mg; slow release rate

{"compound": "O=C(O)c1ccccc1O [salicylic acid]", "Cmax": "~1200 ng/mL"}

---

Test: ASA and salicylic acid plasma pharmacokinetic profiles
Type: in vivo
Details: plasma, oral, 240 mg; fast release rate

{"molecule": "O=C(O)c1ccccc1O [salicylic acid]", "Cmax": "~3700 ng/mL"}

---

Assay: ASA and salicylic acid plasma pharmacokinetic profiles
Assay type: in vivo
Settings: plasma, oral, 160 mg; fast release rate

{"sample_smiles": "O=C(O)c1ccccc1O", "Cmax": "~2600 ng/mL"}

---

Test: ASA and salicylic acid plasma pharmacokinetic profiles
Type: in vivo
Conditions: plasma, oral, 324 mg; fast release rate

{"molecule": "O=C(O)c1ccccc1O [salicylic acid]", "Cmax": "~5000 ng/mL"}
